# protocol: solvent given as SMILES
# condition_notes: in CCOCC
Please map values of fluorescence lifetime to classes as shown: range A: < 1 ns; range B: ≥ 1 ns and < 4 ns; range C: ≥ 4 ns

sample_smiles: COc1nc(Nc2ccc3c4c(cccc24)C(=O)c2ccccc2-3)nc(OC)n1
assigned_category: range C

sample_smiles: CCCCCCCCC1(CCCCCCCC)c2ccccc2-c2ccc(N(c3ccc(-n4c5ccccc5c5ccccc54)cc3)c3ccc4c(c3)C(CCCCCCCC)(CCCCCCCC)c3ccccc3-4)cc21
assigned_category: range B

sample_smiles: Cn1cccc1-c1cc(C#N)ccc1C#N
assigned_category: range C

sample_smiles: COc1ccc(/C=C/C2=CC(/C=C/c3ccc(OC)c4ccccc34)=[O+][B-](F)(F)O2)c2ccccc12
assigned_category: range B

sample_smiles: O=C1c2ccccc2-c2cccc(O)c21
assigned_category: range B

sample_smiles: Cc1ccc(N(c2ccc(C)cc2)c2ccc(-c3ccc4c(c3)C(=O)c3ccccc3C4=O)cc2)cc1
assigned_category: range B

sample_smiles: CCN(CC)c1ccc2nc3c4ccccc4c(=O)cc-3oc2c1
assigned_category: range C

sample_smiles: CN(C)c1ccc(/C=C/C=C/c2ccc(C#N)cc2)cc1
assigned_category: range A

sample_smiles: CC\C=C/C=C/C=C/C=C\CCCCCCCC(=O)O
assigned_category: range C

sample_smiles: c1coc(-c2nc3ccccc3[nH]2)c1
assigned_category: range B

sample_smiles: CN(C)c1ccc(/C=C/c2nc3c4ccccc4c4ccccc4c3[nH]2)cc1
assigned_category: range A

sample_smiles: COc1ccc(/C=C/C2=[O+][B-](F)(F)OC(/C=C/c3ccc(OC)cc3)=C2c2ccccc2)cc1
assigned_category: range A
